- TARGET_OR_SYSTEM: S. pneumoniae Topoisomerase IV ATPase (ParE) (Streptococcus pneumoniae serotype 4, UniProt Q59961)
- Sequence (Q59961 whole entry): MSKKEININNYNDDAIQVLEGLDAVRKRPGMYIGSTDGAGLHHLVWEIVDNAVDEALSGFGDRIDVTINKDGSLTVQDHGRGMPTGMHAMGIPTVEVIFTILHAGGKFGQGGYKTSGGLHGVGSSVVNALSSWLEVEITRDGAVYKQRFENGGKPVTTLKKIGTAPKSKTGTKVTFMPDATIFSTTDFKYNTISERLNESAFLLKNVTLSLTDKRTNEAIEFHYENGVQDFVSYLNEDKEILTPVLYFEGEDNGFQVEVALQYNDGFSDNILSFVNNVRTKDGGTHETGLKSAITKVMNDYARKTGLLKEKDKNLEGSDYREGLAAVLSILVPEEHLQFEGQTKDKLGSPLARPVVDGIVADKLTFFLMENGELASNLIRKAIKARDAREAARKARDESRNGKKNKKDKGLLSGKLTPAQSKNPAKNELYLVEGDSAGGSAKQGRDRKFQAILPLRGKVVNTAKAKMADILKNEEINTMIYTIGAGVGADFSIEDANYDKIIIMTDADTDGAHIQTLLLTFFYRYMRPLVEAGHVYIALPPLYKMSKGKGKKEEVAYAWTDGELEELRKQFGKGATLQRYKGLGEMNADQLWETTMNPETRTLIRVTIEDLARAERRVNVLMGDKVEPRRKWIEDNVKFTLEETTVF
- EXPERIMENTAL_DETAILS: S. pneumoniae Topoisomerase IV ATPase inhibition
- Format: biochemical
- CONDITION_INFO: values marked * are an average of two or more data points, read-out: % Inh (13 μM) of S. pneumoniae Topoisomerase IV ATPase
- Source text: S. pneumoniae Topoisomerase IV ATPase Inhibition Activity: Compounds may be tested for inhibition of S. pneumoniae ParE ATPase activity using an ammonium molybdate/malachite green-based phosphate detection assay (Lanzetta, P. A., L. J. Alvarez, P. S. Reinach, and O. A. Candia, 1979, 100: 95-97). […] An IC50 measurement of compound potency for each compound can be determined from reactions performed in the presence of 10 different compound concentrations. […]
# binarize inhibition at 13 µM: threshold 80% inclusive, high side true, low side false

COCCn1cc(-c2cnc(Nc3cc(OC)cc(OC)c3)nc2-n2ccc(C(F)(F)F)n2)cc(C(=O)NS(C)(=O)=O)c1=O [Example 1163] :: true
CCOC(=O)c1cncc(-c2cnc(Nc3ccc(F)c(Cl)c3)nc2NCCNC(C)=O)c1 [Example 94] :: false
Cc1cc(-c2nccs2)nn1-c1nc(Nc2ccc(F)c(Cl)c2)ncc1-c1cncc(C(=O)O)c1 [Example 529] :: true
CNC(=O)C1CCN(c2nc(Nc3ccc(F)c(Cl)c3)ncc2-c2cncc(C(=O)O)c2)CC1 [Example 247] :: false

I'd appreciate it if you could say whether O=C(O)/C=C/c1cccc(-c2cnc(Nc3ccc(F)c(Cl)c3)nc2NCCCc2nc3ccccc3[nH]2)c1 [Example 289] has inhibition at 13 µM at least equal to 80%.
true

----------
- TARGET_OR_SYSTEM: S. pneumoniae Topoisomerase IV ATPase (ParE) (Streptococcus pneumoniae serotype 4)
- EXPERIMENTAL_DETAILS: S. pneumoniae Topoisomerase IV ATPase inhibition
- Assay type: biochemical
- CONDITION_INFO: values marked * are an average of two or more data points, read-out: % Inh (13 μM) of S. pneumoniae Topoisomerase IV ATPase
# binarize inhibition at 13 µM: threshold 80% inclusive, high side Y, low side N

CCOC(=O)c1cncc(-c2cnc(Nc3ccc(F)c(Cl)c3)nc2NCCCc2nc3ccccc3[nH]2)c1 :: Y
COCCn1cc(C(=O)O)c(=O)c2cc(-c3cnc(Nc4ccc(F)c(Cl)c4)nc3NCCCN(C)C)ccc21 :: Y
COc1cc(F)cc(Nc2ncc(-c3ccc(C(=O)O)o3)c(-n3ccc(C(F)(F)F)n3)n2)c1 :: Y
CCOC(=O)/C=C/c1cccc(-c2cnc(Nc3ccc(F)c(Cl)c3)nc2N2CCOCC2)c1 :: N
CCOC(=O)c1cncc(-c2cnc(Nc3ccc(F)c(Cl)c3)nc2NCc2ccncc2)c1 :: N
Fc1ccc(Nc2ncc(-c3cncnc3)c(NCCCN3CCOCC3)n2)cc1Cl :: Y
O=C(O)/C=C/c1cccc(-c2cnc(Nc3ccc(F)c(Cl)c3)nc2N[C@@H]2CCOC2)c1 :: Y
CN(C)CCCNc1nc(Nc2ccc(F)c(Cl)c2)ncc1-c1cncc(-c2noc(=O)[nH]2)c1 :: N

I'd appreciate it if you could say whether COc1cc(Nc2ncc(-c3cnc(OC)c(C(=O)NS(=O)(=O)c4cn(C)c(=O)n(C)c4=O)c3)c(-n3nc(C(F)(F)F)cc3C)n2)cc(OC)c1 has inhibition at 13 µM at least equal to 80%.
Y

I'd appreciate it if you could say whether CCOC(=O)/C=C/c1cccc(-c2cnc(Nc3ccc(F)c(Cl)c3)nc2NCc2cncn2C)c1 has inhibition at 13 µM at least equal to 80%.
N

I'd appreciate it if you could say whether Cc1nccn1-c1nc(Nc2ccc(F)c(Cl)c2)ncc1-c1cncnc1 has inhibition at 13 µM at least equal to 80%.
N

----------
- TARGET_OR_SYSTEM: S. pneumoniae Topoisomerase IV ATPase (ParE) (Streptococcus pneumoniae serotype 4)
- EXPERIMENTAL_DETAILS: S. pneumoniae Topoisomerase IV ATPase inhibition
- Assay type: biochemical
- CONDITION_INFO: values marked * are an average of two or more data points, read-out: % Inh (13 μM) of S. pneumoniae Topoisomerase IV ATPase
REPORTED_PROPERTY: inhibition at 13 µM (%)
// note: answer is a bare numeric in %

Some solved cases for reference:
Cc1cc(C(F)(F)F)nn1-c1nc(Nc2ccc(F)c(Cl)c2)ncc1-c1c[nH]c(=O)c(C(=O)O)c1 [Example 1094] :: 99
O=C(O)c1cncc(-c2cnc(Nc3ccc(F)c(Cl)c3)nc2-n2cnc(Cl)c2Cl)c1 [Example 327] :: 99
COc1cc(Nc2ncc(-c3cnc(SC)c(C(=O)NS(C)(=O)=O)c3)c(-n3ccc(C(F)(F)F)n3)n2)cc(OC)c1 [Example 852] :: 100
Cc1cc(C(F)(F)F)nn1-c1nc(Nc2ccc(F)c(Cl)c2)ncc1-c1cnc(OCCn2ccnc2)c(C(=O)O)c1 [Example 795] :: 100
CN(C(=O)c1cccc(-c2cnc(Nc3ccc(F)c(Cl)c3)nc2-n2ccc(C(F)(F)F)n2)c1)S(C)(=O)=O [Example 878] :: 88

Lookup result for COc1cc(Nc2ncc(-c3cnc(OCCCS(C)(=O)=O)c(C(=O)NS(C)(=O)=O)c3)c(-n3ccc(C(F)(F)F)n3)n2)cc(OC)c1 [Example 971] ; measured inhibition at 13 µM: 100

Lookup result for CCCNc1nc(Nc2ccc(F)c(Cl)c2)ncc1-c1cncnc1 [Example 33] ; measured inhibition at 13 µM: 81

----------
- TARGET_OR_SYSTEM: S. pneumoniae Topoisomerase IV ATPase (ParE) (Streptococcus pneumoniae serotype 4)
- EXPERIMENTAL_DETAILS: S. pneumoniae Topoisomerase IV ATPase inhibition
- Type: biochemical
- CONDITION_INFO: values marked * are an average of two or more data points, read-out: % Inh (13 μM) of S. pneumoniae Topoisomerase IV ATPase
REPORTED_PROPERTY: inhibition at 13 µM (%)
// note: answer is a bare numeric in %

Some solved cases for reference:
O=C(O)C(=O)Nc1cccc(-c2cnc(Nc3ccc(F)c(Cl)c3)nc2-n2ccc(C(F)(F)F)n2)c1 :: 95
CC1CN(c2nc(Nc3ccc(F)c(Cl)c3)ncc2-c2cccc(/C=C/C(=O)O)c2)CC(C)O1 (stereo not drawn) :: 89.8
CCOC(=O)c1cncc(-c2cnc(Nc3ccc(F)c(Cl)c3)nc2NC2CCN(C(C)=O)CC2)c1 :: 3.56
O=C(O)/C=C/c1cccc(-c2cnc(Nc3cccc(F)c3)nc2-n2ccc(C(F)(F)F)n2)c1 :: 100
Cc1cc(C(F)(F)F)nn1-c1nc(Nc2ccc(F)c(Cl)c2)ncc1-c1cc(C(=O)O)c(=O)n(CCN2CCN(C(C)C)CC2)c1 :: 100
Cc1cc(Nc2ncc(-c3cccc(/C=C/C(=O)O)c3)c(N3CCOCC3)n2)ccc1F :: 86

Lookup result for COc1ncc(-c2cnc(Nc3cc(Cl)cc(C#N)c3)nc2-n2ccc(C(F)(F)F)n2)cc1C(=O)O ; measured inhibition at 13 µM: 100

Lookup result for O=C(O)/C=C/c1cccc(-c2cnc(Nc3ccc(F)c(Cl)c3)nc2N2CCOC(CO)C2)c1 (stereo not drawn) ; measured inhibition at 13 µM: 85

Lookup result for Cc1cc(C(F)(F)F)nn1-c1nc(Nc2ccc(F)c(Cl)c2)ncc1-c1cnc(OC2CCN(C)C2)c(C(=O)O)c1 (stereo not drawn) ; measured inhibition at 13 µM: 97

Lookup result for Fc1ccc(Nc2ncc(-c3cncnc3)c(-n3ccnc3)n2)cc1Cl ; measured inhibition at 13 µM: 72

Lookup result for COc1cc(Nc2ncc(-c3cncc(C(=O)NS(C)(=O)=O)c3)c(-n3nc(C(F)(F)F)cc3C)n2)cc(OC)c1 ; measured inhibition at 13 µM: 100

----------
- TARGET_OR_SYSTEM: S. pneumoniae Topoisomerase IV ATPase (ParE) (Streptococcus pneumoniae serotype 4, UniProt Q59961)
- EXPERIMENTAL_DETAILS: S. pneumoniae Topoisomerase IV ATPase inhibition
- Format: biochemical
- CONDITION_INFO: values marked * are an average of two or more data points, read-out: % Inh (13 μM) of S. pneumoniae Topoisomerase IV ATPase
- Excerpt: S. pneumoniae Topoisomerase IV ATPase Inhibition Activity: Compounds may be tested for inhibition of S. pneumoniae ParE ATPase activity using an ammonium molybdate/malachite green-based phosphate detection assay (Lanzetta, P. A., L. J. Alvarez, P. S. Reinach, and O. A. Candia, 1979, 100: 95-97). […] An IC50 measurement of compound potency for each compound can be determined from reactions performed in the presence of 10 different compound concentrations. […]
REPORTED_PROPERTY: inhibition at 13 µM (%)
// note: answer is a bare numeric in %

Some solved cases for reference:
O=C(O)c1cncc(-c2cnc(Nc3ccc(F)c(Br)c3)nc2N2CCOCC2)c1 [Example 443] :: 85
COc1cc(F)cc(Nc2ncc(-c3cc(C(=O)O)c(=O)n(C)c3)c(-n3nc(C(F)(F)F)cc3C)n2)c1 [Example 921] :: 99
Fc1ccc(Nc2ncc(-c3cncnc3)c(-n3nccn3)n2)cc1Cl [Example 86] :: 91.1
CS(=O)(=O)N1CCN(c2nc(Nc3ccc(F)c(Cl)c3)ncc2-c2cccc(/C=C/C(=O)O)c2)CC1 [Example 302] :: 83
Cc1cc(C)cc(Nc2ncc(-c3cccc(/C=C/C(=O)O)c3)c(N3CCOCC3)n2)c1 [Example 405] :: 85
CCOC(=O)c1cncc(-c2cnc(Nc3ccc(F)c(Cl)c3)nc2NCc2cnn(C)c2)c1 [Example 148] :: 120
COc1ccc(-c2cnc(Nc3ccc(F)c(Cl)c3)nc2NCCCN(C)C)cc1 [Example 25] :: 90.5

Next:
Lookup result for COC(=O)c1cc(-c2cnc(Nc3ccc(F)c(Cl)c3)nc2-n2ccc(C(F)(F)F)n2)cnc1OC [Example 1010] ; measured inhibition at 13 µM: 81

Origin of measurements: patent US20100137313A1
